# measurement-protocol: Blood levels after 6 weeks of a beverage mixture containing an extract of raw coffee beans, liquid chromatography
# Assay type: in vivo
# run-parameters: human, plasma, oral; read-out: blood level 24 hours after administration of chlorogenic acid
result-type: concentration at 24 h
Kindly report the value followed by its unit.

COc1cc(/C=C/C(=O)O)ccc1O [ferulic acid] : 104 ng/mL

// concentration at 24 h value for O=C(O)/C=C/c1ccc(O)c(O)c1 [caffeic acid] : 95.4 ng/mL
